# MEASURED_ON: CB2 receptor (Homo sapiens, UniProt P34972)
# Construct: expressed in transfected cells
# Sequence (P34972 whole entry): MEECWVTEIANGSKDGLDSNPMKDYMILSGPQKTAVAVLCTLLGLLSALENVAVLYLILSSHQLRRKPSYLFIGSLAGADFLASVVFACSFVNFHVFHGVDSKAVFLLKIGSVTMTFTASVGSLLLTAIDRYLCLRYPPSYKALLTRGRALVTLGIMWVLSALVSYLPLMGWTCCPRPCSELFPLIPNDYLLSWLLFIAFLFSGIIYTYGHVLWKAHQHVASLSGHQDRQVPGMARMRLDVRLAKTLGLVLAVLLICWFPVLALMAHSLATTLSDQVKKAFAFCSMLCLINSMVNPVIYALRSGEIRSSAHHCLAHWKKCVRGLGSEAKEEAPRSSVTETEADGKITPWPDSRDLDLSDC
# ASSAY_EXPLANATION: Calcium mobilization assay, agonist mode, CHO expressing CB2 and Gα16
# Format: cell-based
# TEST_CONTEXT: agonist activity, CHO expressing CB2, three independent assays, mean ± SEM; read-out: CB2 EC50
READOUT_KIND: EC50

Task: Could you tell me which EC50 is on file for CCCN1C(=O)SC(=Cc2ccccc2OCc2ccccc2C#N)C1=O [Compound 3] ?
Output: > 10 µM

Task: Could you tell me which EC50 is on file for CC(C)N1C(=O)SC(=Cc2ccccc2OC(=O)C2CC2)C1=O [Compound 22] ?
Output: 4.12 µM

Task: Could you tell me which EC50 is on file for CC(C)N1C(=O)S/C(=C\c2ccccc2OC(=O)C23CC4CC(CC(C4)C2)C3)C1=O [Compound 19] ?
Output: > 10 µM

Task: Could you tell me which EC50 is on file for CC(C)N1C(=O)SC(=Cc2ccccc2OCc2ccccc2C#N)C1=O [Compound 1] ?
Output: 3.12 µM

Task: Could you tell me which EC50 is on file for CC(C)CN1C(=O)SC(=Cc2cccc(OCc3ccccc3C#N)c2)C1=O [Compound 26] ?
Output: > 10 µM
